tgt: UniProtKB Q9H9B1
Sequence (Q9H9B1 whole entry, species assumed): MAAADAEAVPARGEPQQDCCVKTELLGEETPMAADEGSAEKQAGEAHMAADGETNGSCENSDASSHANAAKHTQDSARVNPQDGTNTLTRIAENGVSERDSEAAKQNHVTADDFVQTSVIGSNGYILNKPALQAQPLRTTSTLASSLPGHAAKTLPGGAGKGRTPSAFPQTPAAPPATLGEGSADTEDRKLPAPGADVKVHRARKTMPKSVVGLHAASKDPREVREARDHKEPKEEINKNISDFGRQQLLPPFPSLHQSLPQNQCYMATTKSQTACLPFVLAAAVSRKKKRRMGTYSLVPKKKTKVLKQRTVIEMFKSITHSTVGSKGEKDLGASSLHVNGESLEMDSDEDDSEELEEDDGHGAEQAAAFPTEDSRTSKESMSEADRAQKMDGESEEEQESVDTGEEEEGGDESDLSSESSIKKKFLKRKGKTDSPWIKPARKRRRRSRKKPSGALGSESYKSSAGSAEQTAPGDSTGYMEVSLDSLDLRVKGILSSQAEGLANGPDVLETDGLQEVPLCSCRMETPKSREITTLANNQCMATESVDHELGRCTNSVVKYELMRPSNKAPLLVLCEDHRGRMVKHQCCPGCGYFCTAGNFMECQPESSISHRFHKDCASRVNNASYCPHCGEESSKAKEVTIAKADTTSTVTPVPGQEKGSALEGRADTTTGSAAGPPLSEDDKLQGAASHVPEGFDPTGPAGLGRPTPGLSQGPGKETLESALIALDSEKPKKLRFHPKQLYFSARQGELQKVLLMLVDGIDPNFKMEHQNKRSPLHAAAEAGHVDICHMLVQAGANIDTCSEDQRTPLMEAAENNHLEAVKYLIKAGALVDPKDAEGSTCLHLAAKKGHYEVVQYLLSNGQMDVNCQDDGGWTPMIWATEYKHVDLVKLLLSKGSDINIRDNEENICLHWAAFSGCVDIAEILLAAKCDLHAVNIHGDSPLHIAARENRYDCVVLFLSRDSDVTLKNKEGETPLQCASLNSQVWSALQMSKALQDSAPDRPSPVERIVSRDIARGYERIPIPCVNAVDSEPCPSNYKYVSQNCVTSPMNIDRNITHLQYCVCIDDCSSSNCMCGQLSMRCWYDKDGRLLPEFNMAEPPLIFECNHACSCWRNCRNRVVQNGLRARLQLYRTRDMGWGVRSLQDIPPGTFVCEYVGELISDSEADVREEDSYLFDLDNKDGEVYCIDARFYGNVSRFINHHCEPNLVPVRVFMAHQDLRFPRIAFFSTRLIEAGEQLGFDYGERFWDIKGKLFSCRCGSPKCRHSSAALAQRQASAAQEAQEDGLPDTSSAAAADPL
protocol.notes: EHMT1 enzyme assay on peptide substrate (EHMT1 PEP)
Format: biochemical
particulars: Table III; read-out: EHMT1 PEP (IC50 μM)
The reader will find reported IC50 values listed item by item below.

Guide cases for IC50, answers given:
For "CCN1CC(COc2cc(Nc3nc(C)cc(NC)n3)ccc2OC)C1" the compound record lists IC50 as < 0.1 µM

For CNc1cc(C)nc(Nc2ccc(OC)c(OCC3CCN(C)C3)c2)n1 (single isomer, unassigned) [Compound 418] the compound record lists IC50 as < 0.1 µM

For CNc1ccnc(Nc2cccc(N3CCC(N)C3)c2)n1 (stereo not drawn) [Compound 400] the compound record lists IC50 as > 10 µM

For "CNc1cnnc(Nc2ccc(OC)c(OCCCN3CCCC3)c2)c1" the compound record lists IC50 as 0.1 to 1 µM

---
For "CNc1ccnc(Nc2ccc(OC)c(OCCCN3CC(O)C3)c2)n1" the compound record lists IC50 as < 0.1 µM

For CNc1ccnc(Nc2cccc(N3CCC(N)C3)c2)n1 (stereo not drawn) [Compound 297] the compound record lists IC50 as > 10 µM

###

tgt: UniProtKB Q9H9B1
protocol.notes: EHMT1 enzyme assay on peptide substrate (EHMT1 PEP)
Format: biochemical
particulars: Table VI; read-out: EHMT1 PEP IC50
pIC50: −log10 of the molar value.
measured.property: pIC50

Entry COc1cc(NC2CCOCC2)ncc1OCC1CCNC1 (centres unmarked) , UniProtKB Q9H9B1 data, pIC50 value: 5.00 to 6.00

---
Entry "CNC(=O)CCNc1cc(C)nc(Nc2cnc(OC)c(OCCCN3CCCC3)c2)n1" , UniProtKB Q9H9B1 data, pIC50 value: 6.00 to 7.00

Entry "CNCCCOc1cc(Nc2nccc(NC)n2)ccc1OC" , UniProtKB Q9H9B1 data, pIC50 value: > 7.00

Entry "CNCCNCc1cc(Nc2nccc(NC)n2)ccc1OC" , UniProtKB Q9H9B1 data, pIC50 value: 6.00 to 7.00

Entry "COc1ccc(Nc2cc(C)n(C)n2)cc1OCCCN1CCCC1" , UniProtKB Q9H9B1 data, pIC50 value: < 5.00

###

tgt: EHMT2 (Homo sapiens, UniProt Q96KQ7)
Construct: host or cells: MDA-MB-231
Sequence (Q96KQ7 whole entry): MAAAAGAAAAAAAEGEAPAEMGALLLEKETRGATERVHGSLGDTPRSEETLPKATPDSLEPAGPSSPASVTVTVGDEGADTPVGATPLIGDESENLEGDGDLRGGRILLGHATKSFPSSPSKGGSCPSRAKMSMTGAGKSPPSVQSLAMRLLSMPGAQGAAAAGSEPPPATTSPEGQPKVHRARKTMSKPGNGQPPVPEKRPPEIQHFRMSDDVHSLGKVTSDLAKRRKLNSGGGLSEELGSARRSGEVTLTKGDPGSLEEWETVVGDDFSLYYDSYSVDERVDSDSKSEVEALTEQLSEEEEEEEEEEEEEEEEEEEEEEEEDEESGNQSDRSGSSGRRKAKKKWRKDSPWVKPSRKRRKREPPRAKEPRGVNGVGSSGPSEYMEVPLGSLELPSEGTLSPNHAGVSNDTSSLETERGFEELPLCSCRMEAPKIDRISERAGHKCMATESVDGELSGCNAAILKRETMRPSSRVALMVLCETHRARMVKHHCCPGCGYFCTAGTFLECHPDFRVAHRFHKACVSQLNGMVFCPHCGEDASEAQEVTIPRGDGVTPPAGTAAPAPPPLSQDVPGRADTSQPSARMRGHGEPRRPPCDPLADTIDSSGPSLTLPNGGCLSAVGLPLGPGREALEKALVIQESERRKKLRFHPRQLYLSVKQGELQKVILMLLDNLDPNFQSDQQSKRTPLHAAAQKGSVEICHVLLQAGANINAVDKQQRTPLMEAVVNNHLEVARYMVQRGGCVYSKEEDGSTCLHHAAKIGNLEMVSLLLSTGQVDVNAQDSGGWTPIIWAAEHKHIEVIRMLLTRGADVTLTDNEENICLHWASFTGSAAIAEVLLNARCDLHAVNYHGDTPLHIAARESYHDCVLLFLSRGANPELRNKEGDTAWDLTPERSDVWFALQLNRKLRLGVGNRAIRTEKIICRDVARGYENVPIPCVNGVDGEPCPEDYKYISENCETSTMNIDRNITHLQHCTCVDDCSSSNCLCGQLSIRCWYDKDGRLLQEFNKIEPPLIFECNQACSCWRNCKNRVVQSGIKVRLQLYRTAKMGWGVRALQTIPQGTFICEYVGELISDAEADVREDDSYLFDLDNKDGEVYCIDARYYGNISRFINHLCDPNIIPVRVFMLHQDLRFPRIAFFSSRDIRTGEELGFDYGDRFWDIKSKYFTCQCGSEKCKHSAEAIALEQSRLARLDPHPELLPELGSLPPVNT
protocol.notes: MDA-MB-231 H3K9me2 in-cell Western assay (EHMT2 ICW)
Format: cell-based
particulars: Table VI; read-out: EHMT2 ICW IC50
pIC50: −log10 of the molar value.
measured.property: pIC50

Guide cases for pIC50, answers given:
For "CNc1cc(C)nc(Nc2ccc(OC)c(OC[C@@H]3CCN(C(C)C)C3)c2)n1" the molecule record lists pIC50 as > 7.00

For CN1CCC(COc2cnc(N(C)C3CCNCC3)nc2)C1 (stereo not shown) the molecule record lists pIC50 as < 5.00

For "COc1cc2c(C)nc(N3CCCCC3)nc2cc1OCCCN1CCCC1" the molecule record lists pIC50 as < 5.00

For "CNc1ccnc(Nc2ccc(OC)c(CNCCN3CCCC3)c2)n1" the molecule record lists pIC50 as 6.00 to 7.00

For CN1CCC(Nc2ncc(OCC3CCN(C)C3)cn2)CC1 (stereo not shown) the molecule record lists pIC50 as < 5.00

For "CNc1cc(C)nc(Nc2ccc(OC)c(OC[C@H]3CCN(C(C)(C)C)C3)c2)n1" the molecule record lists pIC50 as 5.00 to 6.00

For "COc1cnc(Nc2cc(NCC3COC3)cnn2)cc1OCCCN1CCCC1" the molecule record lists pIC50 as < 5.00

For "CCN1CC(COc2cc(Nc3nc(C)cc4[nH]ncc34)ncc2OC)C1" the molecule record lists pIC50 as 5.00 to 6.00

---
For "CNc1cc(C)c2cc(OC)c(C#CCN3CCCC3)cc2n1" the molecule record lists pIC50 as 6.00 to 7.00

For "CCN1CC[C@@H](COc2cc(Nc3nccc(NC)n3)ccc2OC)C1" the molecule record lists pIC50 as 6.00 to 7.00

For "CNc1cc(C)nc(Nc2ccc(C(=O)NCc3ccccc3)c(OC)c2)n1" the molecule record lists pIC50 as < 5.00

For "CCN1CCO[C@H](COc2cc(Nc3nccc(NC)n3)ccc2OC)C1" the molecule record lists pIC50 as < 5.00

For "COc1cc2c(C)cc(N3CCNCC3)nc2cc1OCCCN1CCCC1" the molecule record lists pIC50 as 5.00 to 6.00

For "CNc1cc(C2CCN([C@@H]3CCOC3)CC2)c2cc(OC)c(OCCCN3CCCC3)cc2n1" the molecule record lists pIC50 as > 7.00

For "CNC[C@@H](O)COc1cc(Nc2nccc(NC)n2)cnc1OC" the molecule record lists pIC50 as 5.00 to 6.00

For COc1ccc(Nc2nc(C)cc(NC3CCCOC3)n2)cc1OCCCN1CCCC1 (stereo not shown) the molecule record lists pIC50 as 6.00 to 7.00

For CNc1nc(C2CCCCN2C)c2cc(OC)c(OCCCN3CCCC3)cc2n1 (stereo not shown) the molecule record lists pIC50 as 5.00 to 6.00

For "CNc1nc(C2CCN(CCOC)CC2)c2cc(OC)c(OCCCN3CCCC3)cc2n1" the molecule record lists pIC50 as 5.00 to 6.00

For "CNc1ccnc(Nc2ccc(OC)c(OCC[C@@H]3CCCN3)c2)n1" the molecule record lists pIC50 as 5.00 to 6.00
